Assay: Displacement of fluorescent Bocillin FL from Pseudomonas aeruginosa PBP1b
measured_parameter: pIC50
In plain terms, pIC50 is the concentration in mol/L turned into minus its base-10 logarithm.

Solved cases (6 shown):
molecule	pIC50
CC(C)(O/N=C(\C(=O)N[C@H]1CON(C2(C(=O)O)C[C@H](N3C(=O)c4cc(O)c(O)cc4C3=O)C(=O)O2)C1=O)c1csc(N)n1)C(=O)O (stereo partly drawn)	6.57
CC(C)(O/N=C(\C(=O)N[C@H]1CON(C2(C(=O)O)C[C@H](NC(=O)c3cc(=O)c(O)cn3O)C(=O)O2)C1=O)c1csc(N)n1)C(=O)O (stereo partly drawn)	6.09
CC(C)(O/N=C(\C(=O)N[C@H]1CON(C2(C(=O)O)C[C@H](NC(=O)OCc3ccccc3)C(=O)O2)C1=O)c1csc(N)n1)C(=O)O (stereo partly drawn)	5.76
CC(C)(O/N=C(\C(=O)N[C@H]1CON(C2(C(=O)O)C[C@@H](NC(=O)OCc3ccccc3)C(=O)O2)C1=O)c1csc(N)n1)C(=O)O (stereo partly drawn)	5.61
CC(C)(O/N=C(\C(=O)N[C@H]1CON(C2(C(=O)O)CCC(=O)O2)C1=O)c1csc(N)n1)C(=O)O (stereo partly drawn)	5.91
C[C@H]1[C@H](NC(=O)/C(=N\OC(C)(C)C(=O)O)c2csc(N)n2)C(=O)N1S(=O)(=O)O	5.54

Need pIC50 of CC(C)(O/N=C(\C(=O)N[C@H]1CON(C2(C(=O)O)C[C@@H](NC(=O)c3cc(=O)c(O)cn3O)C(=O)O2)C1=O)c1csc(N)n1)C(=O)O (stereo partly drawn) , thanks. 6.09

Need pIC50 of Nc1nc(/C(=N/OCc2cc(=O)c(O)cn2O)C(=O)N[C@H]2CON(C3(C(=O)O)CCC(=O)O3)C2=O)cs1 (stereo partly drawn) , thanks. 5.61

Values from ChEMBL document CHEMBL3259701
